# ASSAY_SYSTEM: PARG (Homo sapiens, UniProt Q86W56)
# Sequence (Q86W56 whole entry): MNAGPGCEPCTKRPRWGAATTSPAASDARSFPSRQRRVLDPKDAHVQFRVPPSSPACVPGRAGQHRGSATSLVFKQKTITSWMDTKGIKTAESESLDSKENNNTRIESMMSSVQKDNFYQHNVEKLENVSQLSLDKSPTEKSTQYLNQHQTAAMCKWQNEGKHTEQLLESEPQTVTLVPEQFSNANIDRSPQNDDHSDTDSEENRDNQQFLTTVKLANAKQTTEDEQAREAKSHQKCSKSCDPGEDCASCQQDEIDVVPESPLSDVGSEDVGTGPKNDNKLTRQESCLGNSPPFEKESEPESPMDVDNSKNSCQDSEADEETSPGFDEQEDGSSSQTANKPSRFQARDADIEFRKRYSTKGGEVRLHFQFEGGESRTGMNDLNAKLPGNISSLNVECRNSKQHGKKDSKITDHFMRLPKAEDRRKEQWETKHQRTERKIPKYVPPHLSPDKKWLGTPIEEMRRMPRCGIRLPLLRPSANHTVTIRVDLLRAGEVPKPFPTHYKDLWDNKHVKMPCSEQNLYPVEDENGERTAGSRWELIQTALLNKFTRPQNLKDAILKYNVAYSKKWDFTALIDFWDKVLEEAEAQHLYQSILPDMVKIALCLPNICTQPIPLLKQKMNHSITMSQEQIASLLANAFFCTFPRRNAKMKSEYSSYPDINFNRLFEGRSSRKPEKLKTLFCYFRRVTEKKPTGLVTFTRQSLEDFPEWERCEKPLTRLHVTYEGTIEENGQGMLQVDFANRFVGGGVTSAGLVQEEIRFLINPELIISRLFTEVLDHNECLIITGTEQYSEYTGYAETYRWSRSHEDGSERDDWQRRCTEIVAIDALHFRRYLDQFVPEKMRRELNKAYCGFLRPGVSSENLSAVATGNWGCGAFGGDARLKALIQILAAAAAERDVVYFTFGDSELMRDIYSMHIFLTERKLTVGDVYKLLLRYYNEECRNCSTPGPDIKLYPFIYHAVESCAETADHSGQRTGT
# PROCEDURE_DETAILS: Biochemical assay (PARG, TFMU-ADPr substrate)
# CONDITION_NOTES: PARG, TFMU-ADPr substrate
Listed compounds paired with reported IC50
EXPERIMENTAL_READOUT: IC50

compound="N#CC1(NS(=O)(=O)c2cc(N3CCN(C(=O)C4CC(N)C4)CC3)c3cnc(-c4nnc(C(F)(F)F)s4)n3c2)CC1 (stereo not drawn)" val="1.91 nM"
compound=CC1(O)CCN(c2cc(S(=O)(=O)NC3(CF)CC3)cn3c(-c4nnc(C(F)F)s4)nnc23)CC1 val="2.04 nM"
compound=N#CC1(NS(=O)(=O)c2cc(N3CCN(C(=O)C4(O)CC4)CC3)c3cnc(-c4nnc(C(F)(F)F)s4)n3c2)CC1 val="2.88 nM"
